Biological target: Glucocorticoid receptor (Homo sapiens); note: assay procedure not described here
Sequence (P04150 whole entry): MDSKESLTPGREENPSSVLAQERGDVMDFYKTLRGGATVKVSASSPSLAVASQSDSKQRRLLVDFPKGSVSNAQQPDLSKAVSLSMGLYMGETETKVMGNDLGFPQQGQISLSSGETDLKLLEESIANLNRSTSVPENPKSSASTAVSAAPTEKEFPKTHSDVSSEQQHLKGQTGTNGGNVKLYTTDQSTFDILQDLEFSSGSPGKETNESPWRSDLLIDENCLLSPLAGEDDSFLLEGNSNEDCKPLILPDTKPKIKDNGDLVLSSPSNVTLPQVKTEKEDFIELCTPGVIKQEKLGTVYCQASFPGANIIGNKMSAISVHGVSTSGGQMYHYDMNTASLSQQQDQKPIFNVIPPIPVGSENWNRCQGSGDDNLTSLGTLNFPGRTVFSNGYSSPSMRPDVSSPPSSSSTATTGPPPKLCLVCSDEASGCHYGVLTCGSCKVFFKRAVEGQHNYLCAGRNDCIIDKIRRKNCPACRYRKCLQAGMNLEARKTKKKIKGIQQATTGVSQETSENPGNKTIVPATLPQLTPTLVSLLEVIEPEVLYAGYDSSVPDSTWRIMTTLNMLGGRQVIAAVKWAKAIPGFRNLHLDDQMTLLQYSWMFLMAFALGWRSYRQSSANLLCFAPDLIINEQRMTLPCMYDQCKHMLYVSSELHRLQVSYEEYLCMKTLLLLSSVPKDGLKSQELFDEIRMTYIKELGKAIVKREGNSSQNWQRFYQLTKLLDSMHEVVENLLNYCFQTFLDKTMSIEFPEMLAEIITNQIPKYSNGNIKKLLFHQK
Format: functional

# Compound, Measured target, AC50
measured = [
    ("O=C(O)[C@H]1/C(=C/CO)O[C@@H]2CC(=O)N21", "Glucocorticoid receptor (Homo sapiens)", "> 30 µM"),
    ("C[C@H](Nc1ncnc2[nH]cnc12)c1cc2cccc(Cl)c2c(=O)n1-c1ccccc1", "Glucocorticoid receptor (Homo sapiens)", "> 30 µM"),
    ("CCOCC(O)COc1ccc(NC(=O)CC[S+](C)C)cc1 (stereo not drawn)", "Glucocorticoid receptor (Homo sapiens)", "> 30 µM"),
    ("CC(C)(CO)c1cc2cc(NC(=O)C3(c4ccc5c(c4)OC(F)(F)O5)CC3)c(F)cc2n1C[C@@H](O)CO", "Glucocorticoid receptor (Homo sapiens)", "> 30 µM"),
    ("CC(C)/N=c1\\cc2n(-c3ccc(Cl)cc3)c3ccccc3nc-2cc1Nc1ccc(Cl)cc1", "Glucocorticoid receptor (Homo sapiens)", "> 30 µM"),
    ("Nc1c2c(nc3ccccc13)CCCC2O (stereo not drawn)", "Glucocorticoid receptor (Homo sapiens)", "14 µM"),
    ("CC(=O)SCC(Cc1ccccc1)C(=O)NCC(=O)OCc1ccccc1 (stereo not drawn)", "Glucocorticoid receptor (Homo sapiens)", "6.3 µM"),
    ("NCC1(CC(=O)O)CCCCC1", "Glucocorticoid receptor (Homo sapiens)", "> 30 µM"),
]

* * *

Biological target: Gamma-aminobutyric acid receptor subunit alpha-1 (Rattus norvegicus); note: assay procedure not described here
Sequence (P62813 whole entry): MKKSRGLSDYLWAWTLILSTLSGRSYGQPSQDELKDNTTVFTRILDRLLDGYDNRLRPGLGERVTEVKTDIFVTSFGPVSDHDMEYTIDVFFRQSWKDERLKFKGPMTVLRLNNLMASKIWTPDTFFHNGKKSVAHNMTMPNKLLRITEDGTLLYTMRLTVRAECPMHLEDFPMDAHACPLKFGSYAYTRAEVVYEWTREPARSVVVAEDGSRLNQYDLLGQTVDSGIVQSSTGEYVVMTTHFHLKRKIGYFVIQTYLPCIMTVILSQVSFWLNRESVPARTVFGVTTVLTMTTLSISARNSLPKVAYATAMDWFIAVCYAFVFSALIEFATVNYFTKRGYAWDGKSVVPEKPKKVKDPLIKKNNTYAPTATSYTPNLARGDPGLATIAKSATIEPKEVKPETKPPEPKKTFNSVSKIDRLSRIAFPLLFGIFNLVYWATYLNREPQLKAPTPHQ
Type: functional

# Compound, AC50
records = [
    ("CC1Cc2ccccc2N1NC(=O)c1ccc(Cl)c(S(N)(=O)=O)c1 (stereo unspecified) [INDAPAMIDE]", "> 10 µM"),
    ("CCOC(=O)[C@H](CCc1ccccc1)N[C@@H](C)C(=O)N1Cc2ccccc2C[C@H]1C(=O)O", "> 10 µM"),
    ("Cc1c(C)c2c(c(C)c1O)CCC(C)(COc1ccc(CC3SC(=O)NC3=O)cc1)O2 (stereo unspecified) [TROGLITAZONE]", "> 30 µM"),
    ("N=C(N)NC(=O)Cc1c(Cl)cccc1Cl [GUANFACINE]", "> 30 µM"),
    ("CCC1(C)CC(=O)NC1=O (stereo unspecified) [ETHOSUXIMIDE]", "> 10 µM"),
    ("CCc1ccc(C(=O)C(C)CN2CCCCC2)cc1 (stereo unspecified) [EPERISONE]", "> 30 µM"),
    ("Cc1cccc(Nc2ccncc2S(=O)(=O)NC(=O)NC(C)C)c1 [TORSEMIDE]", "> 10 µM"),
    ("c1cnc2cc3c(cc2n1)[C@@H]1CNC[C@H]3C1 [VARENICLINE]", "> 30 µM"),
    ("CNCCc1ccccn1 [BETAHISTINE]", "> 30 µM"),
    ("C[C@]12CCC(=O)C=C1[C@@H]1C[C@@H]1[C@H]1[C@@H]3[C@@H]4C[C@@H]4[C@@]4(CCC(=O)O4)[C@@]3(C)CC[C@@H]12 [DROSPIRENONE]", "> 30 µM"),
    ("Cc1ccc(S(=O)(=O)NC(=O)N[C@H]2[C@H]3CC[C@@](C)([C@H]2O)C3(C)C)cc1 [GLIBORNURIDE]", "> 30 µM"),
    ("COc1ccc(-c2cc(=S)ss2)cc1 [ANETHOLTRITHION]", "> 30 µM"),
    ("Nc1nc(Cl)nc2c1ncn2[C@@H]1O[C@H](CO)[C@@H](O)[C@@H]1F [CLOFARABINE]", "> 10 µM"),
    ("Cc1nnc2n1-c1ccc(Cl)cc1C(c1ccccc1)=NC2 [ALPRAZOLAM]", "0.0042 µM"),
    ("CC(=O)Oc1ccccc1C(=O)O [ASPIRIN]", "> 10 µM"),
    ("OCC(CO)N[C@H]1C[C@](O)(CO)[C@@H](O)[C@H](O)[C@H]1O [VOGLIBOSE]", "> 30 µM"),
    ("CN(C)CCc1c[nH]c2ccc(CS(=O)(=O)N3CCCC3)cc12 [ALMOTRIPTAN]", "> 30 µM"),
    ("CCCCCCCC(=O)CC[C@@H]1[C@@H](C/C=C\\CCCC(=O)O)[C@@H](O)C[C@H]1O [UNOPROSTONE]", "> 30 µM"),
    ("CN(C)CCCC1(c2ccc(F)cc2)OCc2cc(C#N)ccc21 (stereo unspecified) [CITALOPRAM]", "> 10 µM"),
    ("CCN1C(=O)NC(c2ccccc2)C1=O (stereo unspecified) [ETHOTOIN]", "> 30 µM"),
    ("O=C(O[C@H]1C[N+]2(CCCOc3ccccc3)CCC1CC2)C(O)(c1cccs1)c1cccs1 [ACLIDINIUM BROMIDE]", "> 10 µM"),
    ("Cc1ccc(-c2ncc(Cl)cc2-c2ccc(S(C)(=O)=O)cc2)cn1 [ETORICOXIB]", "> 10 µM"),
    ("CC1CC(OC(=O)C(O)c2ccccc2)CC(C)(C)C1 (stereo unspecified) [CYCLANDELATE]", "> 10 µM"),
    ("CCOC(=O)C1=C(C)NC(C)=C(C(=O)OC)C1c1cccc(Cl)c1Cl (stereo unspecified) [FELODIPINE]", "> 10 µM"),
    ("COc1ccc(C(Cl)=C(c2ccc(OC)cc2)c2ccc(OC)cc2)cc1 [CHLOROTRIANISENE]", "> 30 µM"),
    ("CCCCC[C@H](O)CC[C@@H]1[C@H]2Cc3cccc(OCC(=O)O)c3C[C@H]2C[C@H]1O [TREPROSTINIL]", "> 30 µM"),
]
